- Test system: Staphylococcus aureus
- assay_details: Inhibition of biofilm formation of Staphylococcus aureus ATCC 35556 at 50 uM by crystal violet staining-based spectrophotometric analysis relative to control
- Assay type: functional
// values below are reported inhibition at 50 µM
Enter your answer as a number in %; do not include the unit.

// worked examples, inhibition at 50 µM included
INSERT INTO assay_data (compound_structure_string, tested_system, unit_abbreviation, value) VALUES
  ('COC(=O)CC1=NN(c2ccccc2)C(=O)/C1=C\c1ccsc1', 'Staphylococcus aureus', '%', 0.355),
  ('COC(=O)CC1=NN(c2ccccc2)C(=O)/C1=C\c1ccc(OC)cc1OC', 'Staphylococcus aureus', '%', 1.53),
  ('COC(=O)CC1=NN(c2ccccc2)C(=O)/C1=C\c1ccccc1Br', 'Staphylococcus aureus', '%', 65.8),
  ('COC(=O)CC1=NN(c2ccccc2)C(=O)/C1=C\c1ccco1', 'Staphylococcus aureus', '%', 6.49),
  ('COC(=O)CC1=NN(c2ccccc2)C(=O)/C1=C\c1ccc(N(C)C)cc1', 'Staphylococcus aureus', '%', 9.7),
  ('COC(=O)CC1=NN(c2ccccc2)C(=O)/C1=C\c1ccc(Cl)cc1', 'Staphylococcus aureus', '%', 88.1),
  ('COC(=O)CC1=NN(c2ccccc2)C(=O)/C1=C\c1cc(OC)c(OC)c(OC)c1', 'Staphylococcus aureus', '%', 31.2),
  ('COC(=O)CC1=NN(c2ccccc2)C(=O)/C1=C\c1c[nH]c2ccccc12', 'Staphylococcus aureus', '%', 62);

Per the reported Staphylococcus aureus data, COC(=O)CC1=NN(c2ccccc2)C(=O)/C1=C\c1ccc(O)cc1 has inhibition at 50 µM of -0.723

Per the reported Staphylococcus aureus data, CCOc1ccc(/C=C2\C(=O)N(c3ccccc3)N=C2CC(=O)OC)cc1OC has inhibition at 50 µM of 34

----------
// values below are reported inhibition at 50 µM
- Tested on: Staphylococcus epidermidis
- assay_details: Inhibition of biofilm formation of Staphylococcus epidermidis GTC 18972 at 50 uM by crystal violet staining-based spectrophotometric analysis relative to control
- Format: functional
Enter your answer as a number in %; do not include the unit.

INSERT INTO measurements (compound_structure_string, tested_system, unit_abbreviation, value) VALUES
  ('COC(=O)CC1=NN(c2ccccc2)C(=O)/C1=C\c1ccco1', 'Staphylococcus epidermidis', '%', 12.1),
  ('COC(=O)CC1=NN(c2ccccc2)C(=O)/C1=C\c1ccsc1', 'Staphylococcus epidermidis', '%', 10.8),
  ('COC(=O)CC1=NN(c2ccccc2)C(=O)/C1=C\c1ccc(O)cc1', 'Staphylococcus epidermidis', '%', 2.6),
  ('COC(=O)CC1=NN(c2ccccc2)C(=O)/C1=C\c1ccc(N(C)C)cc1', 'Staphylococcus epidermidis', '%', 3.75),
  ('COC(=O)CC1=NN(c2ccccc2)C(=O)/C1=C\c1c[nH]c2ccccc12', 'Staphylococcus epidermidis', '%', 54.5);

Sure, the documented inhibition at 50 µM for COC(=O)CC1=NN(c2ccccc2)C(=O)/C1=C\c1ccc(Cl)cc1 is 20.4

Sure, the documented inhibition at 50 µM for COC(=O)CC1=NN(c2ccccc2)C(=O)/C1=C\c1cc(OC)c(OC)c(OC)c1 is 12.8

Sure, the documented inhibition at 50 µM for COC(=O)CC1=NN(c2ccccc2)C(=O)/C1=C\c1ccccc1Br is 82.6

Sure, the documented inhibition at 50 µM for COC(=O)CC1=NN(c2ccccc2)C(=O)/C1=C\c1ccc(OC)cc1OC is -5.55

Sure, the documented inhibition at 50 µM for CCOc1ccc(/C=C2\C(=O)N(c3ccccc3)N=C2CC(=O)OC)cc1OC is 15.6
